system: Kdr (Homo sapiens)
Construct: Kinases are expressed as either kinase domains or full length constructs; made in house
Sequence (P35968 20-1356, species assumed): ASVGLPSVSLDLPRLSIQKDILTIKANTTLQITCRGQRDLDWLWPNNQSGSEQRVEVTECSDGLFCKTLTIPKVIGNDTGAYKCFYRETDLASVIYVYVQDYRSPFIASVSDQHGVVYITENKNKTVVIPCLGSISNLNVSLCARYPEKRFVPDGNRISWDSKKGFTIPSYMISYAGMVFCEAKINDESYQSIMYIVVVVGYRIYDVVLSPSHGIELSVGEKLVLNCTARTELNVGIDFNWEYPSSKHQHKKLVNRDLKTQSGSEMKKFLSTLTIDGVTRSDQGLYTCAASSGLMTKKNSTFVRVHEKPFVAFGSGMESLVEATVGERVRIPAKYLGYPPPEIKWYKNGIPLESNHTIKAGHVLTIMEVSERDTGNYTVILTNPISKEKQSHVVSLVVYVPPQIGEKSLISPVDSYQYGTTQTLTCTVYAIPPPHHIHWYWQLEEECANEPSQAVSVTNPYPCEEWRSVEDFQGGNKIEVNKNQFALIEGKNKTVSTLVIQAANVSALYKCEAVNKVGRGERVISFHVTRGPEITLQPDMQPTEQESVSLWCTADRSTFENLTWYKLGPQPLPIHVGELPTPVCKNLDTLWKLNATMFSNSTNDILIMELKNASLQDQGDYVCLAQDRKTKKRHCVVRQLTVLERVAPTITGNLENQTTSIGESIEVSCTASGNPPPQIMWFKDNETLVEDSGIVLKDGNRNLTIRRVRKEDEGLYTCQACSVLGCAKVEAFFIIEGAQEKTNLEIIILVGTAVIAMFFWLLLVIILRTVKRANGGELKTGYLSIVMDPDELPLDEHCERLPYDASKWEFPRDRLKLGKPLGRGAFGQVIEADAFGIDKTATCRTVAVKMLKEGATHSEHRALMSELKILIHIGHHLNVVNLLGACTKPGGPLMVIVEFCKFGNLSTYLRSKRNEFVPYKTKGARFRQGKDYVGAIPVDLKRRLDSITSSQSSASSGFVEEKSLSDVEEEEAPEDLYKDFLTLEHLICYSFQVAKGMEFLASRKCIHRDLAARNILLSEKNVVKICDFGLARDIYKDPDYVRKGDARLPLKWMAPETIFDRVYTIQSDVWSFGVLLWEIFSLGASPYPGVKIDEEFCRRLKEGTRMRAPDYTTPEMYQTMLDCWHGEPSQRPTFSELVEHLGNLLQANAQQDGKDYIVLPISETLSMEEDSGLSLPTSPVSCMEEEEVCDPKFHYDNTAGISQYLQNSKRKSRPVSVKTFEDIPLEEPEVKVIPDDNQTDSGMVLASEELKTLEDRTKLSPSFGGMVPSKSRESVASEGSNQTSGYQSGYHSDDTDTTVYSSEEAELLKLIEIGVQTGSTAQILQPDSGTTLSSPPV
assay_text: Kinase inhibition assay (33P transfer), Kdr
Format: biochemical
condition_set: read-out: KDR-1
pIC50: −log10 of the molar value.
// reported pIC50 per item

molecule	pIC50
Brc1cccc(Nc2ncnc(Nc3cccc(Br)c3)n2)c1	5.24 to 6.02
NC(=O)c1ccc(Nc2ncnc(-c3cccnc3NCc3ccccc3)n2)cc1	> 6.00
COC(=O)C(c1ccccc1)c1ncnc(Nc2cc(OC)c(OC)c(OC)c2)n1 (centres unmarked)	< 4.96
COc1cc(Nc2ncnc(Nc3ccc(NC(C)=O)c(C(F)(F)F)c3)n2)cc(OC)c1OC	5.30 to 6.08
O=c1[nH]c2ccccc2n1-c1ncnc(Nc2ccncc2)n1	5.10 to 5.88
CCN(c1cccc(C)c1)c1ncnc(Nc2cc(OC)c(OC)c(OC)c2)n1	> 6.00
CCOC(=O)C(Cc1cccc(Nc2ncnc(Nc3cc(-c4ccco4)n[nH]3)n2)c1)(NC(C)=O)C(=O)OCC	5.36 to 6.14
COc1ccc(Nc2nc3ccccc3n2-c2ncnc(Nc3cc(OC)c(OC)c(OC)c3)n2)c(C)c1	> 6.11
COc1cc(Nc2ncnc(-n3c(NCc4ccc(Br)cc4)nc4ccccc43)n2)cc(OC)c1OC	> 6.15
COc1cc(Nc2ncnc(-n3c(NCc4ccc(C(F)(F)F)cc4)nc4ccccc43)n2)cc(OC)c1OC	5.36 to 6.14
COc1cc(Nc2ncnc(-c3cccnc3NCc3ccccn3)n2)cc(OC)c1OC	> 6.05
COc1cc(Nc2ncnc(-n3c(NCc4cccc(Br)c4)nc4ccccc43)n2)cc(OC)c1OC	5.37 to 6.15
CC(=O)Nc1ccc(Nc2ncnc(-n3c(N)nc4ccccc43)n2)cc1	> 5.95
COc1cc(Nc2ncnc(-n3c(NC4CCCc5ccccc54)nc4ccccc43)n2)cc(OC)c1OC (centres unmarked)	5.34 to 6.12
COc1cc(Nc2ncnc(-n3c(NCc4nc5ccccc5[nH]4)nc4ccccc43)n2)cc(OC)c1OC	5.07 to 5.17
CC1CCc2ccccc2N1c1ncnc(N2c3ccccc3CCC2C)n1 (centres unmarked)	< 4.92
COc1cc(Nc2ncnc(Nc3cccc(C(C)=O)c3)n2)cc(OC)c1OC	5.22 to 5.99

These measurements were taken from patent US7074789B2.
